assay_system: T1, Human TMPRSS2 recombinant protein, extracellular region (N-terminal His tag, C-terminal Strep-tag II) (human, UniProt O15393 106-492)
T1 construct: also called Human TMPRSS2 recombinant proteins; extracellular region of human TMPRSS2
T1 sequence (O15393 other isoform, or with tags, fused parts or gaps limits assumed): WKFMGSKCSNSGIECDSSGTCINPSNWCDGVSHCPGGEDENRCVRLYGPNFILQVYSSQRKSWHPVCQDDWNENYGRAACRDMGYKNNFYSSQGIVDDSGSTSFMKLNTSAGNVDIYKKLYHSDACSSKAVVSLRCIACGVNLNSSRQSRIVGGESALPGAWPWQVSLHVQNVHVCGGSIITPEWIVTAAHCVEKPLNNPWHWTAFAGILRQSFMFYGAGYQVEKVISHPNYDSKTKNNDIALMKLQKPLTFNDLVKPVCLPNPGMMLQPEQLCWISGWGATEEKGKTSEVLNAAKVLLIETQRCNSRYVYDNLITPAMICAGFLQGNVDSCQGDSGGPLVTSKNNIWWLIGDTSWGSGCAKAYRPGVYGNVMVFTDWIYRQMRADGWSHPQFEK
experimental_details: SPR (BIAcore), captured mAb, soluble human TMPRSS2 extracellular region
measurement_type: kon (M⁻¹ s⁻¹)
Answer format: numeric, M⁻¹ s⁻¹ implied, no suffix.

Prompt: Need kon of 1831_15 antibody (antibody, V domains shown) VH: QVQLQQPGAELVKPGASVKLSCKASGYSFTTYWMHWVRQRPGQGLEWIGIIHPNSGTTNYNEKFKSKASLTVDKSSSTAYMQLSSLTSEDSAVYYCARLLWDYFDYWGQGTTLTVSS VL: DIVMSQSPSSLAVSAGEKVTMSCKSSQSLLNSRTRKNFLAWYQQKPGQSPKLLIYWASTRESGVPDRFTGSGSGTDFTLTISSVQAEDLAVYYCKQSYNLYTFGGGTKLEIK , thanks.
Completion: 563000
